System: MDA-MB-468 spheroids with HUVEC/MSC, viability
experiment-notes: Anticancer human tumor MDA-MB-468 cell line growth inhibition [PI3K];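 also: spheroids exposed to agents for seven days before readout; 100% = DMSO vehicle control viability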
recorded-conditions: second compound 3.16 µM; first compound 0.316 µM; hits give low values
observable: viability, T/C (%)
Numbers only, in %.

As a guide, the following entries are already answered.
[
  {
    "compound": "CCN1CCN(Cc2ccc(Nc3ncc(F)c(-c4cc(F)c5nc(C)n(C(C)C)c5c4)n3)nc2)CC1 + CC(Nc1ncnc2nc[nH]c12)c1cc2cccc(Cl)c2c(=O)n1-c1ccccc1",
    "test-value": 55.1
  },
  {
    "compound": "CNC(=O)c1ccc(N2C(=S)N(c3ccc(C#N)c(C(F)(F)F)c3)C(=O)C2(C)C)cc1F + CC(Nc1ncnc2nc[nH]c12)c1cc2cccc(Cl)c2c(=O)n1-c1ccccc1",
    "test-value": 53.4
  },
  {
    "compound": "CC(Cn1ccc(-c2ccc(C#N)c(Cl)c2)n1)NC(=O)c1cc(C(C)O)[nH]n1 (stereo not drawn) + CC(Nc1ncnc2nc[nH]c12)c1cc2cccc(Cl)c2c(=O)n1-c1ccccc1",
    "test-value": 60.8
  },
  {
    "compound": "Cn1nccc1Nc1nccc(-c2ccn(C(CO)c3ccc(Cl)c(F)c3)c(=O)c2)n1 (stereo not drawn) + Cc1nc(NC(=O)N2CCCC2C(N)=O)sc1-c1ccnc(C(C)(C)C(F)(F)F)c1",
    "test-value": 63.4
  },
  {
    "compound": "C#Cc1c(F)ccc2cc(O)cc(-c3ncc4c(N5CC6CCC(C5)N6)nc(OCC56CCCN5CC(F)C6)nc4c3F)c12 (stereo not drawn) + Cc1nc(NC(=O)N2CCCC2C(N)=O)sc1-c1ccnc(C(C)(C)C(F)(F)F)c1",
    "test-value": 53.4
  }
]

# batch: return viability, T/C for each of the 3 compounds below
1. CC(C)NCC(C(=O)N1CCN(c2ncnc3c2C(C)CC3O)CC1)c1ccc(Cl)cc1 (stereo not drawn) + Cc1nc(NC(=O)N2CCCC2C(N)=O)sc1-c1ccnc(C(C)(C)C(F)(F)F)c1
2. CC1(C)CCC(CN2CCN(c3ccc(C(=O)NS(=O)(=O)c4ccc(NCC5CCOCC5)c([N+](=O)[O-])c4)c(Oc4cnc5[nH]ccc5c4)c3)CC2)=C(c2ccc(Cl)cc2)C1 + Cc1nc(NC(=O)N2CCCC2C(N)=O)sc1-c1ccnc(C(C)(C)C(F)(F)F)c1
3. CCN1CCN(Cc2ccc(Nc3ncc(F)c(-c4cc(F)c5nc(C)n(C(C)C)c5c4)n3)nc2)CC1 + Cc1nc(NC(=O)N2CCCC2C(N)=O)sc1-c1ccnc(C(C)(C)C(F)(F)F)c1

42.5
54
37.7

---

Tested on: MDA-MB-468 spheroids with HUVEC/MSC, viability
experiment-notes: Anticancer human tumor MDA-MB-468 cell line growth inhibition [PI3K];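 also: spheroids exposed to agents for seven days before readout; 100% = DMSO vehicle control viability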
recorded-conditions: second compound 0.1 µM; first compound 0.01 µM; hits give low values
observable: viability, T/C (%)
One number for each entry, in %.

Worked cases, viability, T/C given:
[
  {
    "molecule": "CCN1CCN(Cc2ccc(Nc3ncc(F)c(-c4cc(F)c5nc(C)n(C(C)C)c5c4)n3)nc2)CC1 + CC(Nc1ccc2c(c1)OCCn1cc(N3C(=O)OCC3C(F)F)nc1-2)C(N)=O",
    "value-units": "%",
    "viability, T/C": 95.5
  },
  {
    "molecule": "CC(=O)c1c(C)c2cnc(Nc3ccc(N4CCNCC4)cn3)nc2n(C2CCCC2)c1=O + COc1c(OCCCN2CCOCC2)ccc2c3n(c(=NC(=O)c4cnc(N)nc4)nc12)CCN3",
    "value-units": "%",
    "viability, T/C": 61.5
  },
  {
    "molecule": "Cn1ncnc1[C@H]1c2n[nH]c(=O)c3cc(F)cc(c23)N[C@@H]1c1ccc(F)cc1 + COc1c(OCCCN2CCOCC2)ccc2c3n(c(=NC(=O)c4cnc(N)nc4)nc12)CCN3",
    "value-units": "%",
    "viability, T/C": 55.3
  }
]

Consider the record given below.
response.value for CC(C)n1nc(-c2ccc3oc(N)nc3c2)c2c(N)ncnc21 + CC(Nc1ccc2c(c1)OCCn1cc(N3C(=O)OCC3C(F)F)nc1-2)C(N)=O (field: viability, T/C) = 82.3
